assayTarget: Melatonin receptor type 1B (Homo sapiens)
Sequence (P49286 whole entry): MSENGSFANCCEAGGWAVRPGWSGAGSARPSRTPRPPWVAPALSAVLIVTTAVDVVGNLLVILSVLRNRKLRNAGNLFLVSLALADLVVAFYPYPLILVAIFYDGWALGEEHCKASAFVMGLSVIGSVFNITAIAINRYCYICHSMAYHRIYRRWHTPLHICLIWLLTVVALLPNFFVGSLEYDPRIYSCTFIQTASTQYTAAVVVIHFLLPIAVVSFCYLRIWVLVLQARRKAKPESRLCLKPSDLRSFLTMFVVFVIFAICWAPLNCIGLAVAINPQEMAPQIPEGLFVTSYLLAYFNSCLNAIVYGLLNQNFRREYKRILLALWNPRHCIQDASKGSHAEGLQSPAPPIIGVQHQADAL
assayName: Displacement of [125I]iodomelatonin from human cloned MT2 receptor expressed in […] NIH3T3 cells after 90 mins
Format: cell-based
reportedProperty: Ki (nM)

// below: answered compounds
COc1cccc(S[C@@H](C)CNC(=O)C2CC2)c1    6.76
CC(=O)N[C@H](C)CSc1ccccc1    64600
CCCC(=O)NCC(C)Oc1cccc(OC)c1 (stereo not given)    3.72

I = CC(=O)NCC(C)Oc1ccccc1 (stereo not given)
II = CC(=O)N[C@H](C)COc1ccccc1
Exercise: Lower value of Ki belongs to which: I or II ? Your choice should be expressed through its label.
Key: I
(I: 1150 nM, II: 53700 nM)

---

assayTarget: UniProt P49286
assayName: Intrinsic activity at human cloned MT2 receptor expressed in […] NIH3T3 cells assessed as increase of [35S]GTPgammaS binding relative to melatonin
Type: functional, cell-based
reportedProperty: Ratio

Answered examples (5):
COc1ccc(OC(C)CNC(C)=O)cc1 (stereo not drawn)    0.13
COc1cccc(OC[C@@H](C)NC(C)=O)c1    0.43
COc1ccccc1SCCNC(C)=O    0.56
CC(=O)N[C@H](C)CSc1ccccc1    -0.04
CC(=O)N[C@@H](C)COc1ccccc1    0.26

I = CC(=O)NC(C)COc1ccccc1 (stereo not drawn)
II = COc1cccc(S[C@@H](C)CNC(=O)C2CC2)c1
Exercise: Compare reported Ratio values for I and II . Which is lower? Please respond with the label that marks your chosen entry.
Key: I

I = COc1cccc(OC(C)CNC(C)=O)c1 (stereo not drawn)
II = CC(=O)N[C@H](C)COc1ccccc1
Exercise: Consider I and II . Which of these has its Ratio at a higher number? Indicate which entry you chose by stating its label.
Key: I
(I: 1.01, II: 0.11)

I = CCCC(=O)NCC(C)Sc1cccc(OC)c1 (stereo not drawn)
II = COc1ccc(SCCNC(C)=O)cc1
Exercise: Please indicate which entry, I or II , has the lower recorded Ratio value. Response format: the label of the selected entry.
Key: II
(II: 0.56, I: 0.99)

1 = COc1cccc(OC(C)CNC(=O)C2CC2)c1 (stereo not drawn)
2 = COc1cccc(SC[C@H](C)NC(C)=O)c1
Exercise: Compare the recorded Ratio of 1 and 2 ; state which is larger. State the label of the item chosen.
Key: 1
(1: 1.02, 2: 0.5)

1 = COc1cccc(OCCNC(C)=O)c1
2 = CC(=O)N[C@@H](C)CSc1ccccc1
Exercise: Between 1 and 2 , which one has the lower reported Ratio value? Select an item and report its label.
Key: 2
(2: 0.25, 1: 0.8)

a = COc1cccc(S[C@H](C)CNC(=O)C2CC2)c1
b = CCCC(=O)NC[C@H](C)Oc1cccc(OC)c1
c = CC(=O)NC(C)CSc1ccccc1 (stereo not drawn)
Exercise: // ranking: key=Ratio, reverse=True In your reply, arrange the labels in the requested order.
Key: b, a, c

---

assayTarget: Melatonin receptor type 1B (Homo sapiens)
assayName: Intrinsic activity at human cloned MT2 receptor expressed in […] NIH3T3 cells assessed as increase of [35S]GTPgammaS binding relative to melatonin
Type: functional, cell-based
reportedProperty: Ratio

COc1cccc(SCCNC(C)=O)c1    0.81
COc1cccc(O[C@H](C)CNC(C)=O)c1    0.93
COc1cccc(OC[C@H](C)NC(C)=O)c1    0.8
CCCC(=O)NC[C@H](C)Sc1cccc(OC)c1    0.96
CCCC(=O)NC[C@@H](C)Oc1cccc(OC)c1    0.86
